- test: qHTS assay to identify small molecule antagonists of the androgen receptor (AR) signaling pathway using the MDA cell line - cell viability counter screen (AID 743041; further: nearly all actives have a fitted effect of over 45% in size)
- assayConditions: MDA-kb2 viability, CellTiter-Fluor, 16 h, cells co-treated with R1881 androgen agonist; series mostly up to 70.3 µM
Records with an inconclusive call do not appear. The source made the active and inactive calls. The call rests on the fitted dose curve; in most records, active means well fitted cell-killing curve with a large enough effect in the repeat runs; inconclusive means weak or mixed curves, or effect the other way; inactive means flat fitted curve, though single readings scatter.
Pick one and only one: active, inactive

Completed entries (count: 6):
CCCCCCCCCBr ... inactive
CCOCCOC(C)=O ... inactive
c1ccc2c(c1)[nH]c1cnccc12 ... inactive
S=C=Nc1cccc2ccccc12 ... inactive
CCCCCCCCCCCCCCCC[n+]1ccccc1 ... active
CCOP(=O)(NC(C)C)Oc1ccc(SC)c(C)c1 (configuration not stated) ... inactive

Hey, what did the test say about ClC1=C(Cl)[C@]2(Cl)[C@H]3[C@H]([C@H]4C=C[C@H]3C4)[C@@]1(Cl)C2(Cl)Cl ?
inactive

Which outcome was entered for the compound NNC(=O)c1ccccc1 in this test?
inactive

Could you kindly confirm the outcome this assay logged for Clc1ccc(CCC(Cn2ccnc2)Sc2c(Cl)cccc2Cl)cc1 (configuration not stated) ?
inactive

Name the outcome recorded for CCCCCCCCCCCCCCC(Br)C(=O)O (configuration not stated) in the assay.
inactive

What did the test return for C[C@@H]1CC[C@@]2(OC1)O[C@H]1[C@@H](O)[C@H]3[C@@H]4CC[C@H]5C[C@@H](O[C@@H]6O[C@H](CO)[C@H](O[C@@H]7O[C@H](CO)[C@@H](O)[C@H](O[C@@H]8OC[C@@H](O)[C@H](O)[C@H]8O)[C@H]7O[C@@H]7O[C@H](CO)[C@@H](O)[C@H](O[C@@H]8O[C@H](CO)[C@@H](O)[C@H](O)[C@H]8O)[C@H]7O)[C@H](O)[C@H]6O)[C@H](O)C[C@]5(C)[C@H]4CC[C@]3(C)[C@H]1[C@@H]2C ?
active

Tell me the assay call for CC[C@H]1C[C@@H]2C[C@H]3c4[nH]c5ccc(OC)cc5c4CCN(C2)[C@@H]13 please.
inactive

Please indicate how the test categorized C=CC(=O)OCCCCOC(=O)C=C .
inactive

###

- test: qHTS assay for small molecule disruptors of the mitochondrial membrane potential (AID 720635)
- assayConditions: HepG2 mitochondrial membrane potential, Mito-MPS dye ratio; series mostly up to 83.2 µM
Inconclusive results are not listed. Active and inactive are the calls of the source. Calls follow the shape of the dose curve; as a rule, active = well fitted inhibition curve with a large enough effect in the signal ratio in the repeat runs; inconclusive = weak or mixed curves, or effect the other way; inactive = flat fitted curve, though single readings scatter; the % refers to the signal ratio.
In this exercise, the only acceptable responses are active, inactive

Previously resolved entries follow.
COc1cc(N)c(Cl)cc1C(=O)NC1CN2CCC1CC2 (stereo unspecified) ... inactive
CCCN(CCC)c1c([N+](=O)[O-])cc(S(N)(=O)=O)cc1[N+](=O)[O-] ... active
CS(=O)(=O)c1ccc(C(=O)C2C(=O)CCCC2=O)c([N+](=O)[O-])c1 ... active
Cc1cc(C)c(C2=C(OC(=O)CC(C)(C)C)C3(CCCC3)OC2=O)c(C)c1 ... active
CC(C)(C)OO ... inactive

Continue with the next compound.
Which outcome was assigned to CC1(c2ccc(Oc3ccccc3)cc2)OC(=O)N(Nc2ccccc2)C1=O (stereo unspecified) in this test?
active

###

- test: qHTS assay for small molecule activators of the heat shock response signaling pathway - cell viability counter screen (AID 743209); further: nearly all actives have a fitted effect of over 50% in size
- assayConditions: HSE-bla HeLa viability, CellTiter-Glo luminescence, 5 h; series mostly up to 62.6 µM
Results filed as inconclusive are left out. Activity calls are given as the source filed them. Calls follow the shape of the dose curve; as a rule, active = well fitted cell-killing curve with a large enough effect in the repeat runs; inconclusive = weak or mixed curves, or effect the other way; inactive = no such curve, though single readings can be large or run the other way.
Bench note: report the call from Yes for active, No for inactive

CC[C@H](C)[C@H]1O[C@]2(C=C[C@@H]1C)C[C@@H]1C[C@@H](C/C=C(\C)[C@@H](O[C@H]3C[C@H](OC)[C@@H](O[C@H]4C[C@H](OC)[C@@H](O)[C@H](C)O4)[C@H](C)O3)[C@@H](C)/C=C/C=C3\CO[C@@H]4[C@H](O)C(C)=C[C@@H](C(=O)O1)[C@]34O)O2 ... Yes

Please turn your attention to the following entry.
Record request — test call for Clc1ccc(C(Cl)(Cl)Cl)c(Cl)c1
No
